Listed next: entries and their corresponding TGI.
Test system: HCT-116 colon
Test: NCI tumour cell line growth inhibition, 48 h
Just the number please, in µM, no unit attached.

According to the records, this compound `O=C(OCc1ncc(-c2ccc(C(F)(F)F)cc2)c(NC2CCCCCC2)n1)c1c(F)c(F)c(F)c(F)c1F` displays TGI of 25.9

Continuing:
According to the records, this compound CN(Cc1cc(Cl)cc(Cl)c1)CC(C(=O)c1ccccc1)c1ccccc1 (stereo not given) displays TGI of 2.36

###

Test system: MDA-MB-435
Assay: NCI tumour cell line growth inhibition, 48 h
Listed next: entries and their corresponding TGI.

According to the records, this molecule `Cn1c2ccc(Br)cc2c2c3c(c4c5ccccc5[nH]c4c21)C(=O)N(O)C3=O` displays TGI of 0.498 µM

According to the records, this molecule COC(=O)N1CC2C3C4CC(C(c5ccccc5)=C4c4ccccc4)C3C21 (centres undefined) displays TGI of 32.8 µM

According to the records, this molecule `O=Cc1cccc2c1Oc1c(cccc1C(=O)O)S2` displays TGI of > 100 µM

###

Listed next: entries and their corresponding TGI.
System: OVCAR-5 ovarian
Assay: NCI tumour cell line growth inhibition, 48 h

As a guide, the following entries are already answered.
According to the records, this molecule `O=[N+]([O-])CCc1cccc([N+](=O)[O-])c1` displays TGI of > 100 µM

According to the records, this molecule `CSc1n[n+]2c(s1)SCCC2` displays TGI of > 100 µM

Continuing:
According to the records, this molecule CCCCCCCCCCC1OC([C@@H](O)CC[C@H](O)C2CC[C@@H](CCCCCCCC(O)CC3=CC(C)OC3=O)O2)CCC1O (stereo not given in full) displays TGI of > 25 µM

According to the records, this molecule `CCc1cccc(CC)c1NC(=O)C1=C(C)NC(C)=C(C(=O)Nc2c(CC)cccc2CC)C1c1ccc([N+](=O)[O-])cc1` displays TGI of > 100 µM

According to the records, this molecule CCOP(=O)(OCC)C(C#N)Cc1ccco1 (stereo not given) displays TGI of > 10 µM

###

Tested on: SK-MEL-28 melanoma
Assay: NCI tumour cell line growth inhibition, 48 h
Listed next: entries and their corresponding TGI.

As a guide, the following entries are already answered.
According to the records, this compound `CC[C@H]1C=CCC[C@@]2(C[C@@H]3CC[C@H]4[C@@H](C(=O)OCCCCCCCCCCCCCCCC(=O)N(CCCN)C[C@@H](O)CCN)[C@@]5(CCC[C@@H](C)O5)NC(=[N+]34)N2)O1` displays TGI of 2.88 µM

According to the records, this compound COc1ccc(N2C(=O)C3c4[nH]c5ccc(F)cc5c4C4CCC(c5ccccc5)CC4C3C2=O)cc1 (centres undefined) displays TGI of 32.7 µM

According to the records, this compound C=C1CCC2C(C)(COC(=O)CC)C(OC(=O)CC)CCC2(C)C1C/C=C1/C(=O)OCC1OC(=O)CC (centres undefined) displays TGI of 4.1 µM

According to the records, this compound `CC(C)C(/C=C/c1ccc(Cl)c(Cl)c1)=N\NC(=O)N/N=C(/C=C/c1ccc(Cl)c(Cl)c1)C(C)C` displays TGI of > 100 µM

According to the records, this compound `CC1=NN(c2nc(N)nc(CC#N)n2)C(C)(C)C1` displays TGI of > 100 µM

Continuing:
According to the records, this compound `CC(=O)NC1=C[C@@H]([C@H]2COC(C)(C)O2)OC1=O` displays TGI of > 100 µM

According to the records, this compound `O=C1OC(=O)c2cc(S(=O)(=O)c3ccc4c(c3)C(=O)OC4=O)ccc21` displays TGI of > 100 µM

According to the records, this compound `Cn1c2ccc(Br)cc2c2c3c(c4c5ccccc5[nH]c4c21)C(=O)N(O)C3=O` displays TGI of 0.498 µM

According to the records, this compound NC1=CN2c3ccccc3N(CC(=O)O)C2C=C1 (centres undefined) displays TGI of > 100 µM
